Target: Serine/threonine-protein kinase TBK1 (Homo sapiens, UniProt Q9UHD2)
Sequence (Q9UHD2 whole entry): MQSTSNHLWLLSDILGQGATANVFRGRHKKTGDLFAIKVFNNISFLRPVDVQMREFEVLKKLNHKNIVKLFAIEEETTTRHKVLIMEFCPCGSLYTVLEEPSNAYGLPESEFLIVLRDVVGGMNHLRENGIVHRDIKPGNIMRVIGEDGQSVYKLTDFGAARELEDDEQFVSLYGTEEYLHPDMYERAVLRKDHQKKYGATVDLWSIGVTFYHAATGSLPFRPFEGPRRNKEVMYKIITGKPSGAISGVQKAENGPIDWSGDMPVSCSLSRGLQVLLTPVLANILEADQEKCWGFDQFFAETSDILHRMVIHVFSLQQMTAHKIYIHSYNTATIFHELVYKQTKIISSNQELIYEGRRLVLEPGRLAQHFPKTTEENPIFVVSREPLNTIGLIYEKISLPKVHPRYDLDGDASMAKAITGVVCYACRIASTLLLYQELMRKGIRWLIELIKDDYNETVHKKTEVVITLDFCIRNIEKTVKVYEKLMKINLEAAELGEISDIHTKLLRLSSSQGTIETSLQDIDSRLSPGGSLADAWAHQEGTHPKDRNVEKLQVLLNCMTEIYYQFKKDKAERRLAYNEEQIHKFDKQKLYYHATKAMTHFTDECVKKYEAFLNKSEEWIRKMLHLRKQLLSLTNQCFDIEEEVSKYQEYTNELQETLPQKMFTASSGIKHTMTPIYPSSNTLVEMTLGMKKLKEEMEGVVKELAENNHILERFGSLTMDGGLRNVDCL
Assay: Inhibition of recombinant full-length TBK1 (unknown origin) using CK1tide as substrate by microfluidic mobility shift assay
pIC50: −log10 of the molar value.
The class of a record is decided solely by its measured pIC50; consult group A = under 6, group B = from 6 up to 7, group C = 7 and over

# MOL_SMILES, ASSIGNED_CATEGORY
data = [
    ("CNc1c(-c2ccc(C(=O)O)cc2)cnc2nc(-c3ccc(OC)cc3)[nH]c12", "group A"),
    ("COc1ccc(-c2nc3c(NCCCNC(=O)C4CCCC4)c(-c4nc(C(=O)O)cs4)cnc3[nH]2)cc1", "group C"),
    ("COc1ccc(-c2nc3c(NCCCNC(=O)C4CCCC4)c(C(N)=S)cnc3[nH]2)cc1", "group C"),
]

Bin this entry: COc1ccc(-c2nc3c(OCCCNC(=O)C4CCCC4)c(-c4csc(C(=O)O)c4)cnc3[nH]2)cc1
group B

---

Biological target: Serine/threonine-protein kinase TBK1 (Homo sapiens, UniProt Q9UHD2)
Experiment: Inhibition of TBK1 in HEK293 cells after 4.5 hrs by ISRE-luciferase reporter gene assay in presence of poly I:C
Type: cell-based
Labelling field: enter class 1 if recorded IC50 is less than 200 nM. Enter class 0 if it equals or exceeds that cut-off.

Item COc1ccc(-c2nc3ncc(-c4csc(C(=O)O)c4)cc3[nH]2)cc1 : IC50 beneath 200 nM, strictly?
class 0

---

Target: Aurora kinase B (Homo sapiens, UniProt Q96GD4)
Sequence (Q96GD4 whole entry): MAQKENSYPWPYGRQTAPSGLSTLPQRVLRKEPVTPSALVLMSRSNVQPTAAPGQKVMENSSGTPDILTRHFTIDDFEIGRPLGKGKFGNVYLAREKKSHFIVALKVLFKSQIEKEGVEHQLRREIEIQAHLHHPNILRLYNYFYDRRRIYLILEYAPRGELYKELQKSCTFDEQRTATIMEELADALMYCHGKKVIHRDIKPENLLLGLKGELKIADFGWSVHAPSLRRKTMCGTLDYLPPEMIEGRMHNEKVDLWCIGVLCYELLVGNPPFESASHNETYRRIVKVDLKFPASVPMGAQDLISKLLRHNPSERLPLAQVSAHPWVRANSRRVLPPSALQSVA
Labelling field: enter label 1 if recorded IC50 is less than 2000 nM. Enter label 0 if it equals or exceeds that cut-off.

// below: answered molecules
# MOLECULE, ASSIGNED_CATEGORY
data = [
    ("COc1ccc(-c2nc3c(NCCCNC(=O)C4CCCC4)c(-c4nc(C(=O)NCC(C)C)cs4)cnc3[nH]2)cc1", "label 0"),
    ("COc1ccc(-c2nc3cc(-c4csc(C(=O)NCC(C)(C)C)c4)cnc3[nH]2)cc1", "label 1"),
    ("COc1ccc(-c2nc3c(NCCCNC(=O)C4CCCC4)c(C(N)=S)cnc3[nH]2)cc1", "label 1"),
    ("CCC(C)CNC(=O)c1cc(-c2cnc3[nH]c(-c4ccc(OC)cc4)nc3c2)cs1 (stereo not given)", "label 0"),
    ("COc1ccc(-c2nc3c(NCCCNC(=O)C4CCCC4)c(-c4nc(C(=O)O)cs4)cnc3[nH]2)cc1", "label 1"),
    ("COc1cc2ncn(-c3cc(OCc4ccccc4S(C)(=O)=O)c(C#N)s3)c2cc1OC [GSK-319347A]", "label 0"),
    ("COc1ccc(-c2nc3cc(-c4csc(C(C)=O)c4)cnc3[nH]2)cc1", "label 0"),
    ("COc1ccc(-c2nc3cc(-c4csc(C(=O)NCC(C)(C)CO)c4)cnc3[nH]2)cc1", "label 1"),
]

Item COc1ccc(-c2nc3c(OCCCNC(=O)C4CCCC4)c(-c4csc(C(=O)O)c4)cnc3[nH]2)cc1 : IC50 beneath 2000 nM, strictly?
label 1

Please do the same for COc1ccc(-c2nc3cc(-c4csc(C(=O)NCC(C)C)c4)cnc3[nH]2)cc1 as well.
label 0

---

Hi there, I'd appreciate the recorded IC50 for every entry that follows.
Biological target: Cyclin-dependent kinase 2 (Homo sapiens, UniProt P24941)

Worked examples follow.
# MOL_SMILES, RESULT_TYPE, ASSAY_VALUE
records = [
    ("COc1ccc(-c2nc3cc(-c4csc(C(=O)NCC(C)(C)C)c4)cnc3[nH]2)cc1", "IC50", "> 30 µM"),
    ("COc1ccc(-c2nc3c(OCCCNC(=O)C4CCCC4)c(Br)cnc3[nH]2)cc1", "IC50", "> 30 µM"),
]

Would you kindly look at the next entry?
# IC50 lookup, item COc1ccc(-c2nc3cc(-c4csc(C(=O)NCC(C)(C)CO)c4)cnc3[nH]2)cc1
> 30 µM

---

Hi there, I'd appreciate the recorded IC50 for every entry that follows.
Biological target: Inhibitor of nuclear factor kappa-B kinase subunit epsilon (Homo sapiens, UniProt Q14164)
Sequence (Q14164 whole entry): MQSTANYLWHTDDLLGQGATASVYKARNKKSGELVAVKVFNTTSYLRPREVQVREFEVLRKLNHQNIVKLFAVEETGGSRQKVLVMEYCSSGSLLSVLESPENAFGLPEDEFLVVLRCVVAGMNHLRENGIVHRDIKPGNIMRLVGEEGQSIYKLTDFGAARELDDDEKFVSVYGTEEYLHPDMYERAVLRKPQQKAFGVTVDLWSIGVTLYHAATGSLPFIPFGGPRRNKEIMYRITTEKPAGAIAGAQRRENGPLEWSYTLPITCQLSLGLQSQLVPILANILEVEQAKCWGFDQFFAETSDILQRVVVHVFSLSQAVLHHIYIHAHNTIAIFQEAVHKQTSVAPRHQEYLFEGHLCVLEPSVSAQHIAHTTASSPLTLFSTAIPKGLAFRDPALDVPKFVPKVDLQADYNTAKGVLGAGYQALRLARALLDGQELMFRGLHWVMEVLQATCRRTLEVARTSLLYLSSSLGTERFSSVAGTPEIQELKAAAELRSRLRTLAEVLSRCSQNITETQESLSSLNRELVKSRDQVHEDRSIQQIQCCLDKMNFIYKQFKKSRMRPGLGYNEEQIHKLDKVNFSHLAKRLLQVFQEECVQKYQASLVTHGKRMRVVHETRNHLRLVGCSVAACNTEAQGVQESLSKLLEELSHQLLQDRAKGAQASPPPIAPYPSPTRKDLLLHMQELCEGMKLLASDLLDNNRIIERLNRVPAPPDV
Test: Inhibition of IKK-epsilon (unknown origin) using 5FAM-AKELDQGSLCTpSFVGTLQ-NH2 as substrate by microfluidic mobility shift assay
Give bare numbers, in nM.

Worked examples follow.
# COMPOUND, IC50 / nM
measured = [
    ("CCC(C)CNC(=O)c1cc(-c2cnc3[nH]c(-c4ccc(OC)cc4)nc3c2)cs1 (configuration not stated)", 1090),
    ("COc1ccc(-c2nc3cc(-c4csc(C(=O)NCCC(C)C)c4)cnc3[nH]2)cc1", 1750),
]

For every item in the list below, what is its measured IC50?
1. COc1ccc(-c2nc3cc(-c4csc(C(=O)NCC(C)C)c4)cnc3[nH]2)cc1
2. COc1ccc(-c2nc3ncc(-c4cc(C(=O)O)co4)cc3[nH]2)cc1

1: 273; 2: 11600

For every item in the list below, what is its measured IC50?
1. COc1ccc(-c2nc3c(NCCCNC(=O)C4CCCC4)c(-c4nc(C(=O)NCC(C)C)cs4)cnc3[nH]2)cc1
2. COc1ccc(-c2nc3cc(-c4csc(C(=O)NCC(C)(C)CO)c4)cnc3[nH]2)cc1
3. COc1cc2ncn(-c3cc(OCc4ccccc4S(C)(=O)=O)c(C#N)s3)c2cc1OC [GSK-319347A]
4. COc1ccc(-c2nc3ncc(-c4ccc(C(=O)O)s4)cc3[nH]2)cc1
5. COc1ccc(-c2nc3c(OCCCNC(=O)C4CCCC4)c(-c4csc(C(=O)O)c4)cnc3[nH]2)cc1
6. COc1ccc(-c2nc3ncc(-c4csc(C(=O)O)c4)cc3[nH]2)cc1

3230
330
469
867
1100
114

For every item in the list below, what is its measured IC50?
1. CNc1c(-c2ccc(C(=O)O)s2)cnc2[nH]c(-c3ccc(OC)cc3)nc12
2. COc1ccc(-c2nc3cc(-c4cc(C(=O)O)cs4)cnc3[nH]2)cc1
3. COc1ccc(-c2nc3cc(-c4csc(C(N)=O)c4)cnc3[nH]2)cc1
4. COc1ccc(-c2nc3c(NCCCNC(=O)C4CCCC4)c(-c4nc(C(=O)O)cs4)cnc3[nH]2)cc1
5. CNC(=O)c1cc(-c2cnc3nc(-c4ccc(OC)cc4)[nH]c3c2)cs1
6. COc1ccc(-c2nc3cc(-c4csc(C(=O)NCC(C)(C)C)c4)cnc3[nH]2)cc1
7. COc1ccc(-c2nc3c(NCCCNC(=O)C4CCCC4)c(-c4nc(C(N)=O)cs4)cnc3[nH]2)cc1

1: 3300; 2: 395; 3: 205; 4: 158; 5: 2560; 6: 497; 7: 42

For every item in the list below, what is its measured IC50?
1. COc1ccc(-c2nc3cc(-c4csc(C(C)=O)c4)cnc3[nH]2)cc1
2. COc1ccc(-c2nc3c(NCCCNC(=O)C4CCCC4)c(C(N)=S)cnc3[nH]2)cc1
3. COCCNC(=O)c1cc(-c2cnc3[nH]c(-c4ccc(OC)cc4)nc3c2)cs1

[6750, 448, 412]

---

As an illustration, consider measured pIC50 for molecules on Cyclin-dependent kinase 2 (Homo sapiens).
Give bare numbers, as −log10 of the molar value.

# MOL_SMILES, pIC50
measured = [
    ("COc1ccc(-c2nc3c(NCCCNC(=O)C4CCCC4)c(-c4nc(C(=O)O)cs4)cnc3[nH]2)cc1", 4.87),
]

Would you kindly look at the next entry?
# pIC50 lookup, item COc1ccc(-c2nc3cc(-c4csc(C(N)=O)c4)cnc3[nH]2)cc1
6.01

---

Target: Serine/threonine-protein kinase TBK1 (Homo sapiens, UniProt Q9UHD2)
Assay: Inhibition of recombinant full-length TBK1 (unknown origin) using CK1tide as substrate by microfluidic mobility shift assay
Hi there, I'd appreciate the recorded log10(IC50) for every entry that follows.
Would you kindly interpret these values as log10 of IC50 expressed in nM?

Worked examples follow.
# MOLECULE, RESULT_TYPE, ASSAY_VALUE
records = [
    ("COc1ccc(-c2nc3ncc(-c4ccc(C(=O)O)s4)cc3[nH]2)cc1", "log10(IC50)", 2.41),
    ("COc1ccc(-c2nc3c(NCCCNC(=O)C4CCCC4)c(-c4nc(C(N)=O)cs4)cnc3[nH]2)cc1", "log10(IC50)", 0.95),
    ("COc1ccc(-c2nc3c(OCCCNC(=O)C4CCCC4)c(Br)cnc3[nH]2)cc1", "log10(IC50)", 2.88),
    ("COc1ccc(-c2nc3c(NCCCNC(=O)C4CCCC4)c(-c4nc(C(=O)NCC(C)C)cs4)cnc3[nH]2)cc1", "log10(IC50)", 2.59),
]

For every item in the list below, what is its measured log10(IC50)?
1. COc1ccc(-c2nc3ncc(-c4csc(C(=O)O)c4)cc3[nH]2)cc1
2. COc1ccc(-c2nc3cc(-c4csc(C(=O)NCC(C)(C)C)c4)cnc3[nH]2)cc1
3. CCC(C)CNC(=O)c1cc(-c2cnc3[nH]c(-c4ccc(OC)cc4)nc3c2)cs1 (stereo not given)
4. COc1ccc(-c2nc3cc(-c4csc(C(N)=O)c4)cnc3[nH]2)cc1
5. COc1ccc(-c2nc3cc(-c4cc(C(=O)O)cs4)cnc3[nH]2)cc1
6. CNC(=O)c1cc(-c2cnc3nc(-c4ccc(OC)cc4)[nH]c3c2)cs1

1: 1.69; 2: 1.92; 3: 2.34; 4: 1.48; 5: 2.11; 6: 2.31
